Assay Procedure: Half life in rat at 1000 mg/kg, po administered via gavage by HPLC/MS analysis
Format: ADME, organism-based
Setup Conditions: in vivo
Readout Kind: half-life (h)
Please reply with the bare figure in h and do not write the unit itself.

Input: Look at this compound and give its reported half-life. `O=C(O)c1c(F)ccc2c1OB(O)[C@@H]1C[C@H]21`
Output: 4

----------
Tested on: Escherichia coli
Assay Procedure: Inhibition of Escherichia coli EC302 TEM-10 assessed as minimum concentration of compound needed to reduce the MIC of aztreonam to 4 ug/ml
# MEC listing for each entry below
Unit µg/mL implied. Number only.

N#CCOc1ccc2c(c1C(=O)O)OB(O)[C@@H](Sc1nncs1)C2: 20
CO[C@H]1Cc2cccc(C(=O)O)c2OB1O: 20
COc1ccc2c(c1C(=O)O)OB(O)[C@@H](Sc1nncs1)C2: 2.5
CSCC(=O)N[C@H]1Cc2ccc(OCC(=O)O)c(C(=O)O)c2OB1O: 5
CSCC(=O)N[C@H]1Cc2ccc(SCCO)c(C(=O)O)c2OB1O: 1.25

Input: Form field: reported MEC of COc1ccc2c(c1C(=O)O)OB(O)C1(CO)CC21 (stereo not drawn)
Output: 5

Input: Consider the compound `O=C(O)c1cccc2c1OB(O)[C@@H](Sc1nncs1)C2` and give its measured MEC.
Output: 20

Input: I am curious: what MEC value has been reported for `CSCC(=O)N[C@H]1Cc2ccc(OCCO)c(C(=O)O)c2OB1O` ?
Output: 2.5

Input: Which MEC value belongs to `CSCC(=O)N[C@H]1Cc2ccc(SC3CNC3)c(C(=O)O)c2OB1O` ?
Output: 5

----------
Assay Procedure: Half life in rat at 30 mg/kg, po administered via gavage by HPLC/MS analysis
Assay type: ADME, organism-based
Setup Conditions: in vivo
Readout Kind: half-life (h)
Respond with the bare value in h.

Input: For the molecule shown here, `O=C(O)c1c(F)ccc2c1OB(O)[C@@H]1C[C@H]21` , give the reported half-life.
Output: 4.4

----------
Tested on: Acinetobacter baumannii
Assay Procedure: Inhibition of Acinetobacter baumannii AB1053 OXA-72 assessed as minimum concentration of compound needed to reduce the MIC of meropenem to 8 ug/ml
Readout Kind: MEC

C[C@H]1Cc2cccc(C(=O)O)c2OB1O: > 20 µg/mL
COc1ccc2c(c1C(=O)O)OB(O)C1(CO)CC21 (stereo unspecified): 2.5 µg/mL
O=C(O)c1cccc2c1OB(O)CC2: > 20 µg/mL
COc1ccc2c(c1C(=O)O)OB(O)[C@@H](Sc1nncs1)C2: > 20 µg/mL
COc1ccc2c(c1C(=O)O)OB(O)[C@@H](CCO)C2: 10 µg/mL
COc1ccc2c(c1C(=O)O)OB(O)C(F)=C2: 2.5 µg/mL
O=C(O)c1nccc2c1OB(O)[C@@H]1C[C@H]21: 0.3 µg/mL
COc1ccc2c(c1C(=O)O)OB(O)C(CO)C2 (stereo unspecified): > 20 µg/mL
O=C(O)c1c(F)ccc2c1OB(O)CC2: 2.5 µg/mL
COc1ccc2c(c1C(=O)O)OB(O)C1CC21 (stereo unspecified): 0.6 µg/mL

Shifting focus to the compound that follows.
Input: Entry under review: `COc1ccc2c(c1C(=O)O)OB(O)CC2` . Reported MEC?
Output: 0.6 µg/mL

----------
Assay Procedure: Oral bioavailability in rat at 1000 mg/kg administered via gavage by HPLC/MS analysis
Format: ADME, organism-based
Setup Conditions: in vivo
Readout Kind: bioavailability (%)
Answer format: numeric, % implied, no suffix.

Input: Query: bioavailability; subject: O=C(O)c1c(F)ccc2c1OB(O)[C@@H]1C[C@H]21 [XERUBORBACTAM]
Output: 24.3

Cited source for all entries: ChEMBL document CHEMBL4616632
